log10(IC50) values by entry
- system_under_test: human P2X3 receptor (Homo sapiens (Human))
- Sequence (P56373 whole entry): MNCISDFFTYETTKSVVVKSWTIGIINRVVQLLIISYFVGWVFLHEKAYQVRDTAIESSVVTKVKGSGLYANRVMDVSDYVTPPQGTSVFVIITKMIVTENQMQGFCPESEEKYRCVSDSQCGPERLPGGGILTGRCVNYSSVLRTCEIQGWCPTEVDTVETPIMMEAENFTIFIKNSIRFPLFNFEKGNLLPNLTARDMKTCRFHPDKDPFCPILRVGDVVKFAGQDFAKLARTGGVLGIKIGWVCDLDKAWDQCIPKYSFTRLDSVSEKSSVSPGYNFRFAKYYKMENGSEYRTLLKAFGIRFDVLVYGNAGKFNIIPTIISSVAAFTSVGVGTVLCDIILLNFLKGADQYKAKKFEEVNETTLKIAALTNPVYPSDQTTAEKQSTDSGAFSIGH
- method_summary: Evaluation of human P2X3 receptor inhibitory activity (Test Example 1)
- settings: C6BU-1 cell transfected with human P2X3 receptor gene, FLIPR 384
Please keep in mind that the values are log10 of IC50 expressed in nM.

# annotated cases, reported log10(IC50) shown
Reported log10(IC50) for CC(C)(Cn1c(=O)[nH]/c(=N\c2ccc(Oc3ncns3)cc2)n(Cc2ccc(Cl)cc2)c1=O)C(=O)O : what is it?
1.15

I'd like to know its log10(IC50). The compound in question is O=c1[nH]/c(=N\c2ccc(Oc3ncccc3F)cc2)n(Cc2ccc(Cl)cc2)c(=O)n1CC1(CO)COC1
0.85

Would you mind telling me what log10(IC50) value was observed for COC(=O)C(C)(C)Cn1c(=O)[nH]/c(=N\c2ccc(Oc3ncccc3C(F)(F)F)cc2)n(Cc2ccc(Cl)cc2)c1=O ?
2.30

Please report the recorded log10(IC50) for Cc1ccc(Cn2c(=O)n([C@H]3C[C@@H](C(=O)O)C3)c(=O)[nH]/c2=N\c2ccc(Oc3ccc(F)cn3)cc2)cc1 .
1.08

For the compound shown here, C[C@@H](Cn1c(=O)[nH]/c(=N\c2ccc(Oc3ccc(OC(F)F)cn3)cc2)n(Cc2ccc(Cl)cc2)c1=O)C(=O)O , give the reported log10(IC50).
0.60

// switching to the query compound
Requested field: log10(IC50). Item: COc1ccc(Oc2ccc(/N=c3\[nH]c(=O)n([C@@H](C)[C@@H](C)C(=O)O)c(=O)n3Cc3ccc(Cl)cc3)cc2)nn1
1.08

Reference for the values: patent US10065941B2
